# test.protocol: in vitro
# experimental.parameters: African green monkey, VERO Tox (CC50)
observable: CC50 at 72 h (µg/mL)
Kindly provide the numeric value in µg/mL only, without the unit symbol.

Below, 4 molecules whose answers are already recorded.
[
  {
    "molecule": "[O-][n+]1nc(NC2CCCCCC2)[n+]([O-])c2ccccc21 [SRI-012256]",
    "observable": "CC50 at 72 h",
    "units.text": "µg/mL",
    "val": 7.9
  },
  {
    "molecule": "[O-][n+]1nc(NC2CCCCC2)[n+]([O-])c2ccccc21 [SRI-012266]",
    "observable": "CC50 at 72 h",
    "units.text": "µg/mL",
    "val": 8.9
  },
  {
    "molecule": "CCC(COC)Nc1n[n+]([O-])c2ccccc2[n+]1[O-] (centres unmarked) [SRI-012272]",
    "observable": "CC50 at 72 h",
    "units.text": "µg/mL",
    "val": 50
  },
  {
    "molecule": "CCC(C)Nc1n[n+]([O-])c2ccccc2[n+]1[O-] (centres unmarked) [SRI-012262]",
    "observable": "CC50 at 72 h",
    "units.text": "µg/mL",
    "val": 21.6
  }
]

Sample [O-][n+]1nc(NC2[C@H]3C[C@@H]4C[C@@H](C[C@H]2C4)C3)[n+]([O-])c2ccccc21 (some centres unmarked) [SRI-012269] ; CC50 at 72 h observed: 7.3

---

# System: Vero cells
# experimental.parameters: African green monkey, 72 h
observable: VERO Tox-SRI
Just the number.

Below, 3 molecules whose answers are already recorded.
[
  {
    "test.smiles": "[O-][n+]1nc(NC2CCC2)[n+]([O-])c2cc3c(cc21)CCCC3",
    "VERO Tox-SRI": 50
  },
  {
    "test.smiles": "COc1cc2c(cc1C)[n+]([O-])nc(NC1CCC1)[n+]2[O-]",
    "VERO Tox-SRI": 50
  },
  {
    "test.smiles": "[O-][n+]1nc(NC2CC2)[n+]([O-])c2ccc(F)cc21",
    "VERO Tox-SRI": 3.5
  }
]

We next turn to a different molecule, shown below.
Sample [O-][n+]1nc(NC2CCC2)[n+]([O-])c2ccc(Cl)cc21 ; VERO Tox-SRI observed: 1.6

---

# test.protocol: MP MTT % viable (Table E1)
# experimental.parameters: MP (so in the source)
observable: viability at 0.1 ug/ml

[
  {
    "compound": "COc1ccc(CN(C)c2n[n+]([O-])c3cc4c(cc3[n+]2[O-])CCC4)cc1",
    "viability at 0.1 ug/ml": "94%"
  },
  {
    "compound": "[O-][n+]1nc(N2CCC(c3ccccc3Cl)C2)[n+]([O-])c2cc3c(cc21)CCC3 (stereo not drawn)",
    "viability at 0.1 ug/ml": "75%"
  },
  {
    "compound": "[O-][n+]1nc(N2CCC(c3ccc(F)cc3)C2)[n+]([O-])c2cc3c(cc21)CCC3 (stereo not drawn)",
    "viability at 0.1 ug/ml": "82%"
  },
  {
    "compound": "COc1cccc(C2CCN(c3n[n+]([O-])c4cc5c(cc4[n+]3[O-])CCC5)C2)c1OC (stereo not drawn)",
    "viability at 0.1 ug/ml": "55%"
  },
  {
    "compound": "[O-][n+]1nc(N2CCC(c3ccccc3F)C2)[n+]([O-])c2cc3c(cc21)CCC3 (stereo not drawn)",
    "viability at 0.1 ug/ml": "123%"
  }
]

Sample CN(Cc1ccc(C(F)(F)F)cc1)c1n[n+]([O-])c2cc3c(cc2[n+]1[O-])CCC3 ; viability at 0.1 ug/ml observed: 108%

Sample [O-][n+]1nc(N2CC3CCCC3C2)[n+]([O-])c2cc3c(cc21)CCC3 (stereo not drawn) ; viability at 0.1 ug/ml observed: 94%

Sample COc1ccc(OC)c(C2CCN(c3n[n+]([O-])c4cc5c(cc4[n+]3[O-])CCC5)C2)c1 (stereo not drawn) ; viability at 0.1 ug/ml observed: 97%

Sample CN(Cc1ccc(F)cc1)c1n[n+]([O-])c2cc3c(cc2[n+]1[O-])CCC3 ; viability at 0.1 ug/ml observed: 82%
